Taken from paper PMC10192568.

Form field: Stability during 24 h at 4°C, RE (one value per entry).
experiment: Stability of the seven components in rat plasma QC samples; type: physicochemical; settings: auto sampler, high QC level, n = 6
I'd appreciate it if you wrote the number followed by its unit.

Consider the following illustrative entries.
Compound	Stability during 24 h at 4°C, RE
O=C(/C=C/c1ccc(O[C@@H]2O[C@H](CO)[C@@H](O)[C@H](O)[C@H]2O)cc1)c1ccc(O)cc1O	−12.7%
O=C1C[C@@H](c2ccc(O[C@@H]3O[C@H](CO)[C@@H](O)[C@H](O)[C@H]3O)cc2)Oc2cc(O)ccc21	−3.0%

// switching to the query compound
Value of Stability during 24 h at 4°C, RE reported for the compound C=C(CC[C@@H](C(=O)O)[C@H]1[C@H](O)C[C@@]2(C)C3=CC[C@H]4C(C)(C)[C@@H](O)CC[C@]4(C)C3=CC[C@]12C)C(C)C [Dehydrotumulosic acid, dehydrotumulosic acid] is −2.3%
